Catalogue of Kd values
Assay System: T1, Rb^P S588F (human, UniProt P06400 380-788, S588F)
T1 construct: also called variant 34
T1 sequence (looked up): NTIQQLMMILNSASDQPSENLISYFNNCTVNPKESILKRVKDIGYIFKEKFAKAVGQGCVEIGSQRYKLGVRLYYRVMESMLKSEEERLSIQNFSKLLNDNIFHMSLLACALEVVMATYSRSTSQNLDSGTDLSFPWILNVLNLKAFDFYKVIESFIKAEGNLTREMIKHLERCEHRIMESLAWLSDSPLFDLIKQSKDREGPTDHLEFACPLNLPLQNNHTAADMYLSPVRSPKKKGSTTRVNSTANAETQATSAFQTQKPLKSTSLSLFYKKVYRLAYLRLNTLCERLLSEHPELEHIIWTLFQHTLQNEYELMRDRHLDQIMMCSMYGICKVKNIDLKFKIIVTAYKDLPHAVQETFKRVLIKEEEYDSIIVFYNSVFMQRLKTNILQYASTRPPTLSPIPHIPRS
Assay Comment: fluorescence polarisation; 25 °C; unlabeled Rb^P titrated against 1.5 nM TMR-E2F1^TD or 7.5 nM TMR-E7^LxCxE; 25 mM Tris pH 8.0, 200 mM NaCl, 1 mM DTT, 0.1% Tween-20; 2 min incubation; quadratic fit; apparent Kd for the variants, Kd for WT
Experimental Setup: both partners purified
No end group written: not given here. TMR = tetramethyl rhodamine dye
# value in nM; strip the unit string

Binder	Kd, nM
DLYCYEQLN (also: TMR label, position not given here, source: synthetic peptide, bought: GenScript) [TMR-E7^LxCxE, LxCxE peptide of the E7 oncoprotein from HPV]	5

In the following, a different binder is considered.
Request the reported Kd associated with {TMR}-GEGIRDLFDCDFGDLTPLD (also called E2F^TD; source: synthetic peptide, bought: GenScript) [TMR-E2F1^TD, peptide of the E2F1 transactivation domain]
36
